meta.source: patent US12559492B2

# TGT: BRAF^V600E protein (Homo sapiens, UniProt P15056, V600E)
# Sequence (P15056 whole entry V600E): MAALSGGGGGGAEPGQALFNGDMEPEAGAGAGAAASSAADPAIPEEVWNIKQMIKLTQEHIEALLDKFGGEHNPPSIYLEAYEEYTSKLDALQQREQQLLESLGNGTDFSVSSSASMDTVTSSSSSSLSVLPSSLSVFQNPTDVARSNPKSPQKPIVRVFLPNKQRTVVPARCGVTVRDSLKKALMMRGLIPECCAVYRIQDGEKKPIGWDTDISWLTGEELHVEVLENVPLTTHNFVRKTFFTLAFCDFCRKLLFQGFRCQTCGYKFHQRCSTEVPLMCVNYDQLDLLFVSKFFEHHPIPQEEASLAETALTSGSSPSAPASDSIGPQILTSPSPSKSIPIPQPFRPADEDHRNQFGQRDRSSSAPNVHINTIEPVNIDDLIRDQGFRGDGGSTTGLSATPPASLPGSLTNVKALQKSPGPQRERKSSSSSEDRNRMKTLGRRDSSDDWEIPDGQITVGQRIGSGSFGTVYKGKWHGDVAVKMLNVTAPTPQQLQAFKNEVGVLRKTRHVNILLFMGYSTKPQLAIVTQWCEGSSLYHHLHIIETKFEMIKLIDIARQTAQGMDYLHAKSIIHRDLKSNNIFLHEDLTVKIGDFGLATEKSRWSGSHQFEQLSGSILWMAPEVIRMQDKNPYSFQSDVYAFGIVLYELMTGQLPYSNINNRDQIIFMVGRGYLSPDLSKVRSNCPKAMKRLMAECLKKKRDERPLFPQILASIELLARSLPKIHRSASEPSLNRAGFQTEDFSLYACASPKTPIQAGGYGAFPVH
# TEST_METHOD_NOTES: HiBiT cellular BRAF V600E degradation assay
# Assay type: cell-based
# EXPERIMENTAL_PARAMETERS: A375.10 cells, 24 h incubation; Emax = amount of residual protein remaining in the cell after compound treatment; read-out: HiBit 24 h Emax
RESULT_TYPE: Emax (%)

Incoming: # lookup: BRAF^V600E protein (Homo sapiens, UniProt P15056, V600E) Emax, key = CCN(C)S(=O)(=O)Nc1cccc(C(=O)c2c[nH]c3ncc(-c4cnc(N5CCN(C(=O)CC6CCN(c7ccc(NC8CCC(=O)NC8=O)cc7F)CC6)CC5)nc4)cc23)c1F (stereo not drawn) [Example 98]
Outgoing: 7.42

Incoming: # lookup: BRAF^V600E protein (Homo sapiens, UniProt P15056, V600E) Emax, key = CCN(C)S(=O)(=O)Nc1ccc(F)c(C(=O)c2c[nH]c3ncc(-c4cnc(N5CCN(C(=O)CN6CCC(c7ccc(NC8CCC(=O)NC8=O)cc7)CC6)CC5)nc4)cc23)c1F (stereo not drawn) [Example A10]
Outgoing: 8

Incoming: # lookup: BRAF^V600E protein (Homo sapiens, UniProt P15056, V600E) Emax, key = CCN(C)S(=O)(=O)Nc1ccc(F)c(C(=O)c2c[nH]c3ncc(-c4cnc(N5CCN(C(=O)CN6CCC(c7ccc(N[C@H]8CCC(=O)NC8=O)cc7)CC6)CC5)nc4)cc23)c1F [Example 25]
Outgoing: 6.36

----------
# TGT: BRAF^V600E protein (Homo sapiens, UniProt P15056, V600E)
# TEST_METHOD_NOTES: HiBiT cellular BRAF V600E degradation assay
# Type: cell-based
# EXPERIMENTAL_PARAMETERS: A375.10 cells, 24 h incubation; Emax = amount of residual protein remaining in the cell after compound treatment; read-out: HiBit 24 h Emax
RESULT_TYPE: Emax (%)

Incoming: # lookup: BRAF^V600E protein (Homo sapiens, UniProt P15056, V600E) Emax, key = CCN(C)S(=O)(=O)Nc1ccc(F)c(C(=O)c2c[nH]c3ncc(-c4cnc(N5CCN(C(=O)CN6CCN(c7ccc(OC8CCC(=O)NC8=O)cn7)CC6)CC5)nc4)cc23)c1F (centres unmarked)
Outgoing: 11

Incoming: # lookup: BRAF^V600E protein (Homo sapiens, UniProt P15056, V600E) Emax, key = `CCN(C)S(=O)(=O)Nc1ccc(F)c(C(=O)c2c[nH]c3ncc(-c4ccc(N5CCN(C(=O)CC6(O)CCN(c7cc(F)c(N8CCC(=O)NC8=O)cc7Cl)CC6)CC5)nc4)cc23)c1F`
Outgoing: 7.87

Incoming: # lookup: BRAF^V600E protein (Homo sapiens, UniProt P15056, V600E) Emax, key = CCN(C)S(=O)(=O)Nc1ccc(F)c(C(=O)c2c[nH]c3ncc(-c4cnc(N5CCN(C(=O)CC6(O)CCN(c7ccc(C8CCC(=O)NC8=O)cc7F)CC6)CC5)c(F)c4)cc23)c1F (centres unmarked)
Outgoing: 6.63

Incoming: # lookup: BRAF^V600E protein (Homo sapiens, UniProt P15056, V600E) Emax, key = CCN(C)S(=O)(=O)Nc1ccc(F)c(C(=O)c2c[nH]c3ncc(-c4cnc(N5CCC(NC(=O)N6CCC(c7ccc(NC8CCC(=O)NC8=O)cc7)CC6)CC5)nc4)cc23)c1F (centres unmarked)
Outgoing: 25

1: CCN(C)S(=O)(=O)Nc1ccc(F)c(C(=O)c2c[nH]c3ncc(-c4cnc(N5CCC(CC(=O)NC6CCN(c7ccc(NC8CCC(=O)NC8=O)cc7F)CC6)CC5)nc4)cc23)c1F (centres unmarked)
2: CCN(C)S(=O)(=O)Nc1ccc(F)c(C(=O)c2c[nH]c3ncc(-c4ccc(N5CCN(C(=O)CC6(O)CCN(c7ccc(NC8CCC(=O)NC8=O)cn7)CC6)CC5)nc4)cc23)c1F (centres unmarked)
Incoming: // which entry has the larger Emax value, 1 or 2 ? Refer to your chosen entry by its label in the reply.
Outgoing: 2

A: O=C1CCC(Nc2ccc(C3CCN(CC(=O)N4CCN(c5ccc(-c6cnc7[nH]cc(C(=O)c8c(F)ccc(NS(=O)(=O)C9CCCCC9)c8F)c7c6)cn5)CC4)CC3)cc2)C(=O)N1 (centres unmarked)
B: O=C1CCC(Nc2ccc(N3CCN(CC(=O)N4CCN(c5ccc(-c6cnc7[nH]cc(C(=O)c8c(F)ccc(NS(=O)(=O)N9CCCC9)c8F)c7c6)cn5)CC4)CC3)cc2)C(=O)N1 (centres unmarked)
Incoming: // which entry has the larger Emax value, A or B ? Refer to your chosen entry by its label in the reply.
Outgoing: B

a: O=C1CCC(Nc2ccc(C3CCN(CC(=O)N4CC5(C4)CN(c4ncc(-c6cnc7[nH]cc(C(=O)c8c(F)ccc(NS(=O)(=O)N9CCCC9)c8F)c7c6)cn4)C5)CC3)cc2)C(=O)N1 (centres unmarked)
b: CCN(C)S(=O)(=O)Nc1cccc(C(=O)c2c[nH]c3ncc(-c4ccc(N5CCN(C(=O)CC6CCN(c7ccc(NC8CCC(=O)NC8=O)cc7F)CC6)CC5)nc4)cc23)c1F (centres unmarked)
Incoming: // which entry reports the smaller Emax, a or b ? Refer to your chosen entry by its label in the reply.
Outgoing: a

P: CCN(C)S(=O)(=O)Nc1ccc(F)c(C(=O)c2c[nH]c3ncc(-c4cnc(N5CCC(C(=O)N6CCC(c7ccc(NC8CCC(=O)NC8=O)cc7)CC6)CC5)nc4)cc23)c1F (centres unmarked)
Q: CCN(C)S(=O)(=O)Nc1ccc(F)c(C(=O)c2c[nH]c3ncc(-c4ccc(CN5CCN(C6CCN(C(=O)CN7CCC(c8ccc(NC9CCC(=O)NC9=O)cc8)CC7)CC6)CC5)cc4)cc23)c1F (centres unmarked)
R: CCN(C)S(=O)(=O)Nc1ccc(F)c(C(=O)c2c[nH]c3ncc(-c4ccc(N5CCN(C(=O)CN6CCC(Nc7ccc8c(C9CCC(=O)NC9=O)nn(C)c8c7)CC6)CC5)nc4)cc23)c1F (centres unmarked)
S: CCN(C)S(=O)(=O)Nc1ccc(F)c(C(=O)c2c[nH]c3ncc(-c4ccc(C5=CCN(C(=O)CC6CCN(c7ccc(NC8CCC(=O)NC8=O)cc7)CC6)CC5)cc4)cc23)c1F (centres unmarked)
Incoming: Please produce an ascending ranking of these compounds based on Emax. Give the order by naming the labels one after another as requested.
Outgoing: S, P, R, Q
